measured_on: T1, human CD22-ECD-His protein (human, UniProt P20273 20-687)
T1 construct: Made in house in HEK293E; also called hCD22-ECD-His; recombinant human CD22-ECD His protein; not shown: His tag
T1 sequence: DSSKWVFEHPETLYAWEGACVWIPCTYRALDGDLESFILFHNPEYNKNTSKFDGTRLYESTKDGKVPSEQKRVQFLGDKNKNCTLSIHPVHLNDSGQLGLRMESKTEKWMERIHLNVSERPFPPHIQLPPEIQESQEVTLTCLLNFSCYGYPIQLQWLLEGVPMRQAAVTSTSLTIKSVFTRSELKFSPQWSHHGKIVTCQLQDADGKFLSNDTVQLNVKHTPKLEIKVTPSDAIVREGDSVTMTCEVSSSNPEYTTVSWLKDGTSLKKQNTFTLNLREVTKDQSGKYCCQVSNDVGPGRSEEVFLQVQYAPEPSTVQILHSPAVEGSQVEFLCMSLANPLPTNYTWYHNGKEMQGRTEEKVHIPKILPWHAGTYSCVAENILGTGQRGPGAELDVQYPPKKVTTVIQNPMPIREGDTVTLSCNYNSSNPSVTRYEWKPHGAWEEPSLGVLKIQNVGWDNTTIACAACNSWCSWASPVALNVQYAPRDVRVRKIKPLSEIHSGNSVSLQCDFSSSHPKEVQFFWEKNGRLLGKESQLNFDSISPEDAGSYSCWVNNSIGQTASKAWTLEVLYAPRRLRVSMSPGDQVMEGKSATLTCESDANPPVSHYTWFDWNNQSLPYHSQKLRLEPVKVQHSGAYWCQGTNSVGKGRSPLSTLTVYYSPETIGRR
measurement_notes: ELISA, human CD22-ECD-His coated
reported_metric: EC50 (read off the curve)

Would you please look over these solved cases?
[[record]]
binder = "F1.267.9 (antibody, human IgG1, kappa, V domains shown, Human-murine chimeric IgG1, kappa) VH: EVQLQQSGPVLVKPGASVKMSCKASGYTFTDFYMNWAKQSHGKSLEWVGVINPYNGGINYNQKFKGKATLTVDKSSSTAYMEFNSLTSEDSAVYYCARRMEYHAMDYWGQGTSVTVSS VL: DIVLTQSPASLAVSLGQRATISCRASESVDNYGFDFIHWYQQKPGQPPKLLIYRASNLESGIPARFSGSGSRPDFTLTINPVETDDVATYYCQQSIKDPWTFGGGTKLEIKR"
reported_metric = "EC50 (read off the curve)"
test_result = "~0.08 nM"

[[record]]
binder = "F1.245.2 (antibody, human IgG1, kappa, V domains shown, Human-murine chimeric IgG1, kappa) VH: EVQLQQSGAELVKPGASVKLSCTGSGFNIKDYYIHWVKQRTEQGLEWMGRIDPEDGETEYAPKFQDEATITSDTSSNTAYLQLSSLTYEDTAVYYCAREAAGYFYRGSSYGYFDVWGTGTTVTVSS VL: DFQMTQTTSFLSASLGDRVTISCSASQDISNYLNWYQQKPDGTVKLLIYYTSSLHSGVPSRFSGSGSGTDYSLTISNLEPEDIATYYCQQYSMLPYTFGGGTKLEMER"
reported_metric = "EC50 (read off the curve)"
test_result = "~0.01 nM"

[[record]]
binder = "F1.224.1 (antibody, human IgG1, kappa, V domains shown, Human-murine chimeric IgG1, kappa) VH: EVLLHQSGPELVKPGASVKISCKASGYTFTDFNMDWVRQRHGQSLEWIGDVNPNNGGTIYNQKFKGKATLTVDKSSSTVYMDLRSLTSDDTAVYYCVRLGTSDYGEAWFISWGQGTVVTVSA VL: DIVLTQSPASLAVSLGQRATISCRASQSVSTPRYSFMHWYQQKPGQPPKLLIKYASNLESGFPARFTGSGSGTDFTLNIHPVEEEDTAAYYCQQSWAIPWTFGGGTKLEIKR"
reported_metric = "EC50 (read off the curve)"
test_result = "~0.02 nM"

[[record]]
binder = "F2.343.16 (antibody, human IgG1, lambda, V domains shown, Human-murine chimeric IgG1, lambda) VH: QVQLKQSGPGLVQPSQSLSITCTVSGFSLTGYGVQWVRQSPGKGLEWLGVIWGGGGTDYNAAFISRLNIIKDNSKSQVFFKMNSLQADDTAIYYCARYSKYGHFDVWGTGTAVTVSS VL: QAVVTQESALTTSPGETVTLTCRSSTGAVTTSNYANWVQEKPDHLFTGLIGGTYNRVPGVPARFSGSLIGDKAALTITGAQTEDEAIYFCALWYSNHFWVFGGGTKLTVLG"
reported_metric = "EC50 (read off the curve)"
test_result = "~0.06 nM"


Here is the next item to consider.
Input line: Requested read-out: EC50 (read off the curve). Entry: F2.99.1 (antibody, human IgG1, lambda, V domains shown, Human-murine chimeric IgG1, lambda) VH: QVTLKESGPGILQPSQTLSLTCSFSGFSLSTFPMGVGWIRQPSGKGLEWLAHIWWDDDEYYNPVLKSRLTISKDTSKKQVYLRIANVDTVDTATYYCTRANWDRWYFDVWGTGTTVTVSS VL: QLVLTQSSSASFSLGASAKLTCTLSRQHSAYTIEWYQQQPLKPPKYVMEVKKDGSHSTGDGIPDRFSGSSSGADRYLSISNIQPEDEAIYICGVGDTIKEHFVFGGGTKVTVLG
Output line: ~0.04 nM
